Listing of entries alongside the reported EC50.
Target: C-term biotin J-peptide (Homo sapiens, UniProt P00533, DELINS30-297G)
Assay: Antibody specificity by ELISA
Settings: ELISA binding, avidin pre-coated plates

H1H2195P: human IgG1 Fc anti-EGFRvIII antibody; HCVR/LCVR SEQ ID NOs 18/26 (antibody, V domains shown, human IgG1 Fc) VH: QVQLVESGGGVVQPGRSRRLSCVGSGFIFSSYGMHWVRQAPGKGLEWVALIFYDGSNEYYVDSVKGRFTISRDNSKNTLYLQMNSLRAEDTAVYYCAREGYSQRYKYYFGMDVWGQGTTVTVSS VL: DIQMTQSPSSVSASVGDRVTITCRASQGISSWLAWYQQQPGKAPKLLIYAASSLQSGVPSRFSGSGSGTDFTLTISSLQPEDFATYYCQQTNSFPLTFGGGTKVEIKR | > 10 nM
H1H1911N: human IgG1 Fc anti-EGFRvIII antibody with variable domains 1911; HCVR/LCVR SEQ ID NOs 50/58 (antibody, V domains shown, human IgG1 Fc) VH: QVQLVESGGGVVQPGRSLRLSCAASGFTFSRYGIHWVRQAPGKGLEWVAVIWHDGSNKYYADSVKGRFTISRDNSKNTLYLQMTSLRAEDTAVYYCARDGLEIRDHYYYGMDVWGQGTTVTVSS VL: DIQMTQSPSTLSASVGDRVTITCRASQSTSSWLAWYQQKPGKAPTLLIYKASSLESGVPSKFSGSGSGTEFTLTISSLQPDDFATYYCQQYNRYSRTFGQGTKVEIK | > 10 nM

Prompt: State its EC50 for this molecule: H1H1915N: human IgG1 Fc anti-EGFRvIII antibody with variable domains 1915; HCVR/LCVR SEQ ID NOs 82/90 (antibody, V domains shown, human IgG1 Fc) VH: QVQLVESGGGVVQPGRSLRLSCAASGFTFSAYAMHWVRQAPGKGLEWVAVIWYDGSNKNYADSVKGRFTVSRDNSKNTLYLEMNSLRAEDTAVYYCARDLMVGVTNYWGQGTLVTVST VL: DVVMTQSPLSLPVALGQPASISCRSSQSLVYTDGNTYLNWFHQRPGQSPRRLIYKVSNRDSGVPDRFTGSGSGTDFTLKISRVEAEDVGVFYCMQGSHWPPYTFGQGTKLEIK
Response: > 10 nM

Value source: patent US11608380B2
